Values compiled from patent US8673904B2.

Target: CatB (Rattus norvegicus, UniProt P00787)
Sequence (P00787 80-333): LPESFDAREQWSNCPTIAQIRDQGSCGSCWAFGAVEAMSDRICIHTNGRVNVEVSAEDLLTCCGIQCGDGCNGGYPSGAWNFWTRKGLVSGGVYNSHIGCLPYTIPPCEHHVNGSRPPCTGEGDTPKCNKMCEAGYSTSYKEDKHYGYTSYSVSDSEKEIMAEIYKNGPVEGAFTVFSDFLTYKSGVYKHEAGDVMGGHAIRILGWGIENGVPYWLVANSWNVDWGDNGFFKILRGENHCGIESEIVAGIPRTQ
Assay: IC50 by competition with radiolabeled general cathepsin probe DCG-04 in rat liver lysate
Conditions: 1 mg/ml rat liver lysate, inhibitor 20 minutes, then DCG-04 1 hour
pIC50: −log10 of the molar value.
Some molecules, each annotated with its measured pIC50.
Recorded metric: pIC50

# Molecule, Quantitative readout
records = [
    ("CC(C)C[C@H](NC(=O)C1OC1C(=O)NCCc1ccc(O)cc1)C(=O)N[C@@H](Cc1ccc(O)cc1)C(N)=O (stereo partly drawn) [Compound 25]", 7.70),
    ("CCC[C@H](NC(=O)C1O[C@@H]1C(=O)O)C(=O)N[C@@H](Cc1ccc(O)cc1)C(N)=O (stereo partly drawn)", 7.52),
    ("CC(C)C[C@H](NC(=O)[C@H]1O[C@@H]1C(=O)O)C(=O)NCCc1ccc(O)cc1 [JPMOH, reference compound]", 6.40),
]
